test: Intrinsic clearance in human liver microsomes by LC-MS/MS analysis; format: ADME; details: read-out: CLH
Where a SMILES comes first, the peptide text is derived from it. [ ]: non-standard residue; d: D form. NMeAbu(4-morpholino) = CN[C@@H](CCN1CCOCC1)C(=O)O; NMeY = CN[C@@H](Cc1ccc(O)cc1)C(=O)O; dNMeL = CN[C@H](CC(C)C)C(=O)O; NMeS = CN[C@@H](CO)C(=O)O
OBSERVABLE: CLint scaled (mL/min/kg)
Provide the reading as a plain figure in mL/min/kg.

Given the entry CC(C)C[C@@H]1NC(=O)[C@H](Cc2ccc(O)cc2)N(C)C(=O)[C@H]2CCCN2C(=O)[C@H](CC(C)C)NC(=O)[C@H](CO)N(C)C(=O)[C@@H](CC(C)C)N(C)C1=O (cyclo(L[dNMeL][NMeS]L[dP][NMeY])) , report its measured CLint scaled.
80

More entries:
Requested read-out: CLint scaled. Entry: CC(C)C[C@@H]1NC(=O)[C@H](Cc2ccc(O)cc2)N(C)C(=O)[C@H]2CCCN2C(=O)[C@H](CC(C)C)NC(=O)[C@H](CCN2CCOCC2)N(C)C(=O)[C@@H](CC(C)C)N(C)C1=O (cyclo(L[dNMeL][NMeAbu(4-morpholino)]L[dP][NMeY]))
16

====

assay: Intrinsic clearance in human liver microsomes by LC-MS/MS analysis; assay type: ADME; settings: read-out: CLH
Where a SMILES comes first, the peptide text is derived from it. [ ]: non-standard residue; d: D form. The star is where a group is joined. NMeY = CN[C@@H](Cc1ccc(O)cc1)C(=O)O; NMeLys(Me) = CNCCCC[C@H](NC)C(=O)O; NMeI = CC[C@H](C)[C@H](NC)C(=O)O; NMeT = CN[C@H](C(=O)O)[C@@H](C)O; NMeD = CN[C@@H](CC(=O)O)C(=O)O; dNMeL = CN[C@H](CC(C)C)C(=O)O; NMeK = CN[C@@H](CCCCN)C(=O)O; Morpholide = C1CN(*)CCO1; Piperidide = C1CCN(*)CC1
OBSERVABLE: CLint scaled

# annotated cases, reported CLint scaled shown
Request the reported CLint scaled associated with CC(C)C[C@@H]1NC(=O)[C@H](Cc2ccc(O)cc2)N(C)C(=O)[C@H]2CCCN2C(=O)[C@H](CC(C)C)NC(=O)[C@H]([C@@H](C)O)N(C)C(=O)[C@@H](CC(C)C)N(C)C1=O (cyclo(L[dNMeL][NMeT]L[dP][NMeY]))
89 mL/min/kg

Next entry: CC(C)C[C@@H]1NC(=O)[C@H](Cc2ccc(O)cc2)N(C)C(=O)[C@H]2CCCN2C(=O)[C@H](CC(C)C)NC(=O)[C@H](CC(=O)N2CCCCC2)N(C)C(=O)[C@@H](CC(C)C)N(C)C1=O (cyclo(L[dNMeL][NMeD](Piperidide)L[dP][NMeY]))
> 300 mL/min/kg

Field entry: CC(C)C[C@@H]1NC(=O)[C@H](Cc2ccc(O)cc2)N(C)C(=O)[C@H]2CCCN2C(=O)[C@H](CC(C)C)NC(=O)[C@H](CCCCN)N(C)C(=O)[C@@H](CC(C)C)N(C)C1=O (cyclo(L[dNMeL][NMeK]L[dP][NMeY]))
< 8 mL/min/kg

Again, but for CC(C)C[C@@H]1NC(=O)[C@H](Cc2ccc(O)cc2)N(C)C(=O)[C@H]2CCCN2C(=O)[C@H](CC(C)C)NC(=O)[C@H](CC(=O)N2CCOCC2)N(C)C(=O)[C@@H](CC(C)C)N(C)C1=O (cyclo(L[dNMeL][NMeD](Morpholide)L[dP][NMeY]))
57 mL/min/kg

What would you report for CNCCCC[C@H]1C(=O)N[C@@H](CC(C)C)C(=O)N2CCC[C@@H]2C(=O)N(C)[C@@H](Cc2ccc(O)cc2)C(=O)N[C@@H](CC(C)C)C(=O)N(C)[C@H](CC(C)C)C(=O)N1C (cyclo(L[dNMeL][NMeLys(Me)]L[dP][NMeY])) ?
9 mL/min/kg

Same thing, different molecule: CC(C)C[C@@H]1NC(=O)[C@H](Cc2ccc(O)cc2)N(C)C(=O)[C@H]2CCCN2C(=O)[C@H](CC(C)C)NC(=O)[C@H](CC(=O)O)N(C)C(=O)[C@@H](CC(C)C)N(C)C1=O (cyclo(L[dNMeL][NMeD]L[dP][NMeY]))
< 8 mL/min/kg

Kindly consider the entry below.
For CC[C@H](C)[C@H]1C(=O)N[C@@H](CC(C)C)C(=O)N2CCC[C@@H]2C(=O)N(C)[C@@H](Cc2ccc(O)cc2)C(=O)N[C@@H](CC(C)C)C(=O)N(C)[C@H](CC(C)C)C(=O)N1C (cyclo(L[dNMeL][NMeI]L[dP][NMeY])) , what is its reported CLint scaled?
> 300 mL/min/kg
